Experiment: Solubility of the compound of Formula (I) in aqueous media without surfactant
Type: physicochemical
Conditions: aqueous buffer; hydrochloric acid solution, buffer, and water without surfactant, 37° C., pH 1.0˜9.0
MEASURED ENDPOINT: solubility

Task item: Fill blank: measured solubility of the molecule Cc1cc(OC[P@@]2(=O)OCC[C@@H](c3cccc(Cl)c3)O2)cc(C)c1Cc1ccc(O)c(C(C)C)c1 [Formula (I) compound] is ____.
Reply: < 0.5 ng/mL

// provenance: patent US11752161B2
